System: MDA-N
Assay explanation: NCI tumour cell line growth inhibition, 48 h
Where a SMILES comes first, the peptide text is derived from it. Bridges are numbered along the chain shown (N, C = ends). [ ]: non-standard residue; d: D form. The star is where a group is joined. ξ: configuration not given here. X26 = O=C(/C=C/C=C/C=C/C=C/C=C/C(=O)*)NC1=C(O)CCC1=O; Pro(4R-Me) = C[C@H]1CN[C@H](C(=O)O)C1; NMeA = CN[C@@H](C)C(=O)O; ξF = NC(Cc1ccccc1)C(=O)O; ξA = CC(N)C(=O)O

# Compound, TGI
records = [
    ("Cc1cc2c(O)c(c1)CN(Cc1ccccc1)Cc1cc(C)cc(c1O)CN(Cc1ccccc1)Cc1cc(C)cc(c1O)CN(Cc1ccccc1)C2", "> 100 µM"),
    ("Cn1c(=O)c2c(nc3n(Cc4ccccc4)c(=O)c(Br)cn23)n(C)c1=O", "> 100 µM"),
    ("Nc1ncnc2c1ncc(=O)n2C1CC(O)C(CO)O1 (stereo not drawn)", "> 100 µM"),
    ("CC#CC(O)(C(=O)OC1CCC2CCC1N2C)C1CCCC1 (stereo not drawn)", "> 100 µM"),
    ("O=C(C1OC1c1ccc(F)cc1)C12CC3CC(CC(C3)C1)C2 (stereo not drawn)", "32.5 µM"),
    ("CCO/C(O)=C(/C(=N)N1CCOCC1)C(=O)Nc1ccc(Cl)cc1", "> 100 µM"),
    ("COc1ccc(/C=C2\\N=C(N/N=C\\C(O)C(O)C(O)C(O)CO)NC2=O)cc1 (stereo not drawn)", "39.6 µM"),
    ("CN(C)CCn1c(=O)c2ccc(NCCCN(C)CCCNc3ccc4c(=O)n(CCN(C)C)c(=O)n5c6ccccc6c(=O)c3c45)c3c(=O)c4ccccc4n(c1=O)c23", "1.6 µM"),
    ("NNC1=Nc2ccc(Cl)cc2C(=S)N2CSCC12 (stereo not drawn)", "> 100 µM"),
    ("CC1NC(=O)[C@H](C)N(C)C(=O)[C@@H]2CCCN2C(=O)[C@@H](NC(=O)C(Cc2ccccc2)NC(=O)/C=C/C=C/C=C/C=C/C=C/C(=O)NC2=C(O)CCC2=O)COC(=O)[C@@H]2C[C@@H](C)CN2C1=O (stereo partly drawn) (X26-[ξF]SP[NMeA][ξA][Pro(4R-Me)]; ester 2-C)", "> 100 µM"),
    ("CC(C)(C)c1ccc(O)c(CN(Cc2c(O)ccc3ccccc23)C2CCCCC2)c1", "29.3 µM"),
    ("O=S(=O)(c1ccc(Cl)cc1)c1ccccc1C1=NCCN1", "> 100 µM"),
    ("CCc1n[nH]c(=O)n1/N=C/c1ccc(/C=N/n2c(CC)n[nH]c2=O)cc1", "> 100 µM"),
    ("C=C1CC2(CC(c3ccccc3OC)OC(c3ccccc3OC)C2)OC1=O (stereo not drawn)", "3.44 µM"),
    ("COc1nc(N)c(N=O)c(OCc2ccccc2)n1", "> 10 µM"),
    ("CN(CCCNCc1ccccn1)Cc1ccccc1O", "> 100 µM"),
    ("O=[N+]([O-])c1ccc2c(c1)c1nn2CCCCOc2nn(c3ccc([N+](=O)[O-])cc23)CCCCO1", "> 100 µM"),
    ("c1ccc2c(c1)nnn2CN1CCOCC1", "> 100 µM"),
    ("COC(=O)Cc1cc2c(cc1C(=O)c1ccc(N)cc1)OCO2", "1.43 µM"),
    ("Nc1cccc2nnccc12", "> 100 µM"),
    ("CCOC(=O)CCc1cccc2c1oc1c(CCNC(=O)OCC3c4ccccc4-c4ccccc43)cccc12", "> 100 µM"),
    ("C[C@]12CC[C@@H]3c4cc(Br)c(O)c(Br)c4CC[C@H]3[C@@H]1CC(Br)C2=O (stereo partly drawn)", "43.5 µM"),
    ("CC(C)(C)COC1C2(OCCO2)C2CCC1(C)C2(C)C (stereo not drawn)", "> 100 µM"),
    ("O=C1C=CC(O)(C#CCO)C=C1", "23 µM"),
    ("CCOC(=O)C1OC(=O)CC1C1(C(=O)OCC)C=CC(=O)O1 (stereo not drawn)", "> 100 µM"),
    ("COc1cc2c(c(O)c1OC)C(=O)C1CCC(=O)N1C2c1cccc2ccccc12 (stereo not drawn)", "> 100 µM"),
    ("COc1ccc(/C=C2/SC(c3ccc(Cl)cc3)N(NC(=O)CCCCCCCCC(=O)NN3C(=O)/C(=C\\c4ccc(OC)c(OC)c4)SC3c3ccc(Cl)cc3)C2=O)cc1OC (stereo not drawn)", "98.4 µM"),
    ("Cc1ccc(-c2cc(-c3ccccc3)nc(N)n2)c(O)c1", "> 100 µM"),
]

====

Let's look at some compounds and their measured TGI.
System: TK-10 renal
Assay explanation: NCI tumour cell line growth inhibition, 48 h
Value kind: TGI

# Compound, Result
records = [
    ("O=C1/C(=C\\c2cccc(Oc3ccccc3)c2)SC(c2ccccc2)N1c1ccccc1Cl (centres undefined)", "> 100 µM"),
    ("Cc1cc2c(O)c(c1)CN(Cc1ccccc1)Cc1cc(C)cc(c1O)CN(Cc1ccccc1)Cc1cc(C)cc(c1O)CN(Cc1ccccc1)C2", "> 100 µM"),
    ("COc1ccc2[nH]c3c(C)c4ccncc4c(C)c3c2c1", "4.37 µM"),
    ("COc1cc2c(c(OC)c1OC)-c1ccc(SC)c(=O)cc1[C@@H](NCc1ccccc1[N+](=O)[O-])CC2", "> 100 µM"),
    ("O=C1C=CC(=O)C(CNc2ccc(C(=O)OC34CC5CC(CC(C5)C3)C4)cc2)=C1Br", "28.6 µM"),
    ("Cc1cc(OCC(=O)O)c(Cl)cc1Cl", "> 100 µM"),
    ("COc1ccc(/C(C)=C(\\c2ccc(Cl)cc2)c2ccc(OCCN3CCCCC3)cc2)cc1", "13.8 µM"),
    ("COc1ccc(/C=C2\\N=C(N/N=C\\C(O)C(O)C(O)C(O)CO)NC2=O)cc1 (centres undefined)", "> 100 µM"),
    ("O=C(c1ccc(Cl)cc1)N(C(=S)OC12CC3CC(CC(C3)C1)C2)c1ccccc1", "> 100 µM"),
]

====

Tested on: M14 melanoma
Assay explanation: NCI tumour cell line growth inhibition, 48 h
Value kind: GI50

# Sample smiles, Value kind, Result
data = [
    ("NC(N)=NN=C(c1ccccc1)c1ccccc1", "GI50", "2.64 µM"),
    ("CCOc1cc(F)c([N+](=O)[O-])cc1[N+](=O)[O-]", "GI50", "1.67 µM"),
    ("Clc1ccc2c(N3CCN(c4ccnc(NC5CCCCC5)n4)CC3)ccnc2c1", "GI50", "1.78 µM"),
    ("COc1ccc2cc(C#Cc3ccc(-n4c(/C=C/c5cc(OC)c(OC)c(OC)c5)nc5ccccc5c4=O)c(C)c3)ccc2c1", "GI50", "12.7 µM"),
    ("O=C(c1ccco1)c1nc2ccc(Cl)cc2[n+]([O-])c1C(F)(F)F", "GI50", "> 100 µM"),
    ("O=C(Cc1n[nH]c(=O)c2ccccc12)OCc1c(Cl)cccc1Cl", "GI50", "> 100 µM"),
]

====

We begin with a simple list: items and their reported TGI.
Tested on: MCF7 breast
Assay explanation: NCI tumour cell line growth inhibition, 48 h

# Compound, TGI
records = [
    ("Nc1nccc2c1ncn2[C@H]1C[C@H](O)[C@@H](CO)O1", "> 100 µM"),
    ("c1cc[n+](C2c3ccccc3C([n+]3ccccc3)c3ccccc32)cc1 (stereo not given)", "> 100 µM"),
    ("Cc1cc2c(O)c(c1)CN(Cc1ccccc1)Cc1cc(C)cc(c1O)CN(Cc1ccccc1)Cc1cc(C)cc(c1O)CN(Cc1ccccc1)C2", "> 100 µM"),
    ("CCOC(=O)CCc1cccc2c1oc1c(CCNC(=O)OCC3c4ccccc4-c4ccccc43)cccc12", "> 100 µM"),
    ("CCNCCCNc1c2ccccc2nc2ccccc12", "0.625 µM"),
]

====

Test system: SF-539 CNS
Assay explanation: NCI tumour cell line growth inhibition, 48 h
// reported TGI for each item listed

# Compound, TGI
data = [
    ("COC1=CC(=O)N(C(=O)C2CSC(C(CO)NC(=O)c3csc(/C=N/O)n3)=N2)C1 (stereo not given)", "> 100 µM"),
    ("CCCCC(CCCCCC(CCCC)C1NC(C)Cc2cc(OC)c(OC)cc21)C1NC(C)Cc2cc(OC)c(OC)cc21 (stereo not given)", "3.21 µM"),
    ("O=C(O)c1ccc(C(=O)Nc2cccc3ccccc23)c(C(=O)O)c1", "> 100 µM"),
    ("CCCCCC(=O)Nc1n[nH]nc1C#N", "> 100 µM"),
    ("Clc1ccc(-c2nnc3c4nnc(-c5ccc(Cl)cc5Cl)n4c4ccccc4n23)c(Cl)c1", "> 100 µM"),
    ("Cc1nc2ccccc2nc1NNc1ccccc1", "> 96.2 µM"),
    ("Cc1cc2c(O)c(c1)CN(Cc1ccccc1)Cc1cc(C)cc(c1O)CN(Cc1ccccc1)Cc1cc(C)cc(c1O)CN(Cc1ccccc1)C2", "> 100 µM"),
    ("CC[C@H](C)[C@H](NC(=O)c1ccccn1)C(=O)N(C)[C@H](C[C@@H](OC(C)=O)c1nc(C(=O)N[C@@H](Cc2ccccc2)C[C@H](C)C(=O)OC)cs1)C(C)C", "50.8 µM"),
    ("CCOC(=O)[C@H]1O[C@@H]1C(=O)NC(CC(C)C)C(=O)NCCC(C)C (stereo not given in full)", "> 100 µM"),
    ("COC(=O)Cc1cc2c(cc1C(=O)c1ccc(N)cc1)OCO2", "> 27.2 µM"),
    ("O=c1[nH]c(=O)n(COCCOCc2ccccc2)cc1Nc1ccccc1", "> 100 µM"),
    ("COc1cc(C(=O)O)ccc1OS(=O)(=O)O", "> 100 µM"),
    ("Nc1n[nH]c2cccc(C#Cc3cccc(NC(=O)c4ccc(N5CCOCC5)c(C(F)(F)F)c4)c3)c12", "1.54 µM"),
    ("NS(=O)(=O)c1ccc(NC(=S)/N=C/c2c(O)c3ccccc3oc2=O)cc1", "> 100 µM"),
    ("CCOC(=O)CC[C@H](NC(=O)c1[nH]cnc1/N=N/N(C)C)C(=O)OCC", "> 100 µM"),
    ("O=S1c2ccccc2N=C(c2cccc3ccccc23)CC1c1cccc2ccccc12 (stereo not given)", "40.6 µM"),
    ("C[C@H](C(=O)C12CC3CC(CC(C3)C1)C2)[C@H](O)c1ccccc1", "96.5 µM"),
    ("C=C1CC(C)(COc2ccc3c(C)c(C)c(=O)oc3c2C)OC1=O (stereo not given)", "7.04 µM"),
    ("COC(=O)C12C3C4(C(=O)OC)C1C1(C(=O)OC)C2C3(C(=O)OC)C41C(=O)N(C(C)C)C(C)C (stereo not given)", "> 100 µM"),
    ("Cc1cc(Cl)nc(Nc2nc3ccccc3[nH]2)n1", "> 100 µM"),
]
